- Protocol Description: in vitro
- Test Context: human, hela cells, % viability
Quantity Name: viability at 28.5 h, 10 µM (%)
// note: answer is a bare numeric in %

The following compounds have reported results that may help.
O=C(c1ccccc1)N1C[C@H](c2ccc(F)cc2)[C@H]2CN(CCc3ccccc3)CC[C@H]21 ... 98.2
Sc1nccn1Cc1cccs1 ... 92
COc1ccccc1-c1cnc2[nH]c(=O)n(C3CCCCC3)c2n1 ... 98.7

Continue with the next compound.
Briefly, viability at 28.5 h, 10 µM measured for CC(Cc1cccs1)NC(=O)c1cc(C2CC2)on1 (stereo not drawn) : 107

----------
- Protocol Description: in vitro
- Test Context: human, hela cells, % viability
Quantity Name: viability at 28.5 h, 10 µM (%)
Note: unit % is implicit; provide only the numeric part.

# count of solved cases: 4
Cc1ccccc1CN1CCCN(C(=O)CCNC(=O)c2ccco2)CC1 ... 103
CC1CCCCN1S(=O)(=O)c1ccc(-n2ncc(Cl)c(Cl)c2=O)cc1 (stereo not drawn) ... 90.6
COc1ccc(-c2csc(CC(=O)O)n2)cc1 ... 85.4
CN1CC(=O)N2CCOC(C2)c2cccc(n2)NC(=O)C/C=C/CC2(CCNCC2)C1=O (stereo not drawn) ... 102

response.value for "Cc1ccc(S(=O)(=O)Nc2nc(C)c(C(=O)O)s2)cc1[N+](=O)[O-]" (field: viability at 28.5 h, 10 µM) = 91.3

Please fill in: viability at 28.5 h, 10 µM reported for "Cc1ccc(-c2n[nH]c(=S)n2CC(=O)N(C)Cc2ccc(N3CCOCC3)cc2)cc1" = 85.9
